- Assayed system: Low-density lipoprotein receptor (Homo sapiens)
- Experiment: Displacement of S-tagged Ac-[cMPRLRGC]c-NH2 from human DsRed2-fused LDLR expressed in CHO cells at 10 uM after 1 hr by FRET assay
- Assay type: cell-based

| Molecule | inhibition [%] |
| --- | --- |
| COCC[C@@H]1NC(=O)[C@H](NC(C)=O)CSSC[C@@H](C(N)=O)NC(=O)CNC(=O)[C@H](CCCNC(=N)N)NC(=O)[C@H](CC(C)C)NC(=O)[C@H](CCCNC(=N)N)NC(=O)[C@@H]2CCCN2C1=O | 0 |
| CSCC[C@@H]1NC(=O)[C@H](NC(C)=O)CSSC[C@@H](C(N)=O)NC(=O)CNC(=O)[C@H](CCCNC(=N)N)NC(=O)[C@H](CC(C)C)NC(=O)[C@H](CCCNC(=N)N)NC(=O)c2ccccc2NC1=O | 0 |
| CSCCC1NC(=O)[C@H](NC(C)=O)CNC(=O)C[C@@H](C(N)=O)NC(=O)CNC(=O)[C@H](CCCNC(=N)N)NC(=O)[C@H](CC(C)C)NC(=O)[C@H](CCCNC(=N)N)NC(=O)[C@@H]2CCCN2C1=O (single isomer, unassigned) | 12 |
| CSCC[C@@H]1NC(=O)C(NC(C)=O)CSCC(C(N)=O)NC(=O)CNC(=O)[C@H](CCCNC(=N)N)NC(=O)[C@H](CC(C)C)NC(=O)[C@H](CCCNC(=N)N)NC(=O)[C@@H]2CCCN2C1=O (mixture of isomers) | 41 |
| CSCC[C@@H]1NC(=O)[C@H](NC(C)=O)CSSC[C@@H](C(N)=O)NC(=O)CNC(=O)[C@H](CCCNC(=N)N)NC(=O)[C@H](CC(C)C)NC(=O)[C@H](CCCNC(=N)N)NC[C@@H]2CCCN2C1=O | 0 |

* * *

- Assayed system: Low-density lipoprotein receptor (Homo sapiens) (UniProt P01130)
- Sequence (P01130 whole entry, the tested form may be a part): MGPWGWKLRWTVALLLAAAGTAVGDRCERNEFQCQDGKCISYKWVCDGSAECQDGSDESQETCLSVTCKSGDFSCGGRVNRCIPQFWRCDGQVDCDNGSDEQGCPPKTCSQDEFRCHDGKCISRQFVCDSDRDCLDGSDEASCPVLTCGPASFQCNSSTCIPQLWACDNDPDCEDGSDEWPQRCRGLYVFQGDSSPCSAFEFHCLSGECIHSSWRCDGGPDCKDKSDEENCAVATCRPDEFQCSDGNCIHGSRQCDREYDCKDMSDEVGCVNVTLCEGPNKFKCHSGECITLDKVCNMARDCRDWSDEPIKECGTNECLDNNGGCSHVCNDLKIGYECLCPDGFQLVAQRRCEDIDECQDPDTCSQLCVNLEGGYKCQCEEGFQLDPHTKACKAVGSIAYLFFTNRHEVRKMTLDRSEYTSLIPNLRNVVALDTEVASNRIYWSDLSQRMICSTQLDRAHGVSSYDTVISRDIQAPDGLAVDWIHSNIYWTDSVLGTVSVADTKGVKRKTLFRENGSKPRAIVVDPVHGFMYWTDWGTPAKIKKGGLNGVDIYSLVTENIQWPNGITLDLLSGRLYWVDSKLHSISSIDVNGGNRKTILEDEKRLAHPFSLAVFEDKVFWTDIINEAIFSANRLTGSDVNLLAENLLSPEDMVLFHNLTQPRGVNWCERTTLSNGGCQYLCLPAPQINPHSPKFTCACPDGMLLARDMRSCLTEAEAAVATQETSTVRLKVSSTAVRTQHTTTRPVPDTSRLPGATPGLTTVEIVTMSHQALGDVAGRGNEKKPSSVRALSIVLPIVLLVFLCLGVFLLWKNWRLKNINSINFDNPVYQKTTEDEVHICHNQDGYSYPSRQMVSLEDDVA
- Experiment: Displacement of S-tagged Ac-DSGL[CMPRLRGC]cDPR-NH2 from human DsRed2-fused LDLR expressed in CHO cells at 10 uM after 1 hr by FRET assay
- Assay type: cell-based
Where a SMILES comes first, the peptide text is derived from it. Bridges are numbered along the chain shown (N, C = ends).
Property: inhibition (%)

| Molecule | Property | Measured value |
| --- | --- | --- |
| CSCC[C@@H]1NC(=O)[C@@H](NC(=O)[C@H](CC(C)C)NC(=O)CNC(=O)[C@H](CO)NC(=O)[C@H](CC(=O)O)NC(C)=O)CSSC[C@@H](C(=O)N[C@@H](CC(=O)O)C(=O)N2CCC[C@H]2C(=O)N[C@@H](CCCNC(=N)N)C(N)=O)NC(=O)CNC(=O)[C@H](C)NC(=O)[C@H](CC(C)C)NC(=O)[C@H](CCCNC(=N)N)NC(=O)[C@@H]2CCCN2C1=O (Ac-DSGLCMPRLAGCDPR-NH2; disulfide 5-12) | inhibition | 2 |
| CSCC[C@@H]1NC(=O)[C@@H](NC(=O)[C@H](C)NC(=O)CNC(=O)[C@H](CO)NC(=O)[C@H](CC(=O)O)NC(C)=O)CSSC[C@@H](C(=O)N[C@@H](CC(=O)O)C(=O)N2CCC[C@H]2C(=O)N[C@@H](CCCNC(=N)N)C(N)=O)NC(=O)CNC(=O)[C@H](CCCNC(=N)N)NC(=O)[C@H](CC(C)C)NC(=O)[C@H](CCCNC(=N)N)NC(=O)[C@@H]2CCCN2C1=O (Ac-DSGACMPRLRGCDPR-NH2; disulfide 5-12) | inhibition | 64 |
| CSCC[C@@H]1NC(=O)[C@@H](NC(=O)[C@H](CC(C)C)NC(=O)CNC(=O)[C@H](CO)NC(=O)[C@H](C)NC(C)=O)CSSC[C@@H](C(=O)N[C@@H](CC(=O)O)C(=O)N2CCC[C@H]2C(=O)N[C@@H](CCCNC(=N)N)C(N)=O)NC(=O)CNC(=O)[C@H](CCCNC(=N)N)NC(=O)[C@H](CC(C)C)NC(=O)[C@H](CCCNC(=N)N)NC(=O)[C@@H]2CCCN2C1=O (Ac-ASGLCMPRLRGCDPR-NH2; disulfide 5-12) | inhibition | 55 |

* * *

- Experiment: Half life in Swiss mouse plasma
- Type: ADME, cell-free

| Compound structure | half-life [h] |
| --- | --- |
| CSCC[C@@H]1NC(=O)[C@@H](NC(C)=O)C(C)(C)SSC[C@@H](C(N)=O)NC(=O)CN(C)C(=O)[C@H](CCCNC(=N)N)NC(=O)[C@H](CC(C)C)NC(=O)[C@H](CCCNC(=N)N)NC(=O)[C@@H]2CSCN2C1=O | 2.9 |
| CSCC[C@@H]1NC(=O)[C@@H](NC(C)=O)C(C)(C)SSC[C@@H](C(N)=O)NC(=O)CNC(=O)[C@H](CCCNC(=N)N)NC(=O)[C@H](CC(C)C)NC(=O)[C@H](CCCNC(=N)N)NC(=O)[C@@H]2CCCCN2C1=O | 2.99 |
| CSCC[C@@H]1NC(=O)[C@@H](NC(C)=O)CSSC[C@@H](C(N)=O)NC(=O)CNC(=O)[C@H](CCCNC(=N)N)NC(=O)[C@H](CC(C)C)NC(=O)[C@H](CCCNC(=N)N)NC(=O)[C@@H]2CCCN2C1=O | 1.47 |
| CSCC[C@@H]1NC(=O)[C@H](NC(C)=O)CSSC[C@@H](C(N)=O)NC(=O)CNC(=O)[C@H](CCCNC(=N)N)NC(=O)[C@H](CC(C)C)NC(=O)[C@H](CCCNC(=N)N)NC(=O)[C@@H]2CCCN2C1=O | 3.03 |
| CSCC[C@@H]1NC(=O)[C@H](NC(C)=O)CSSC[C@@H](C(N)=O)NC(=O)CN(C)C(=O)[C@H](CCCNC(=N)N)NC(=O)[C@H](CC(C)C)NC(=O)[C@H](CCCNC(=N)N)NC(=O)[C@@H]2CSCN2C1=O | 2.26 |
| CSCC[C@@H]1NC(=O)[C@H](NC(C)=O)CSSC[C@@H](C(N)=O)NC(=O)CNC(=O)[C@H](CCCNC(=N)N)NC(=O)[C@H](CC(C)C)NC(=O)[C@H](CCCNC(=N)N)NC(=O)[C@@H]2CSCN2C1=O | 1.8 |
| CSCC[C@@H]1NC(=O)[C@H](NC(C)=O)C(C)(C)SSC[C@@H](C(N)=O)NC(=O)CNC(=O)[C@H](CCCNC(=N)N)NC(=O)[C@H](CC(C)C)NC(=O)[C@H](CCCNC(=N)N)NC(=O)[C@@H]2CCCCN2C1=O | 1.7 |

* * *

- Assayed system: Low-density lipoprotein receptor (Homo sapiens)
- Experiment: Displacement of S-tagged Ac-DSGL[CMPRLRGC]cDPR-NH2 from human DsRed2-fused LDLR expressed in CHO cells at 10 uM after 1 hr by FRET assay
- Type: cell-based
Where a SMILES comes first, the peptide text is derived from it. Bridges are numbered along the chain shown (N, C = ends).

| Compound | inhibition |
| --- | --- |
| CSCC[C@@H]1NC(=O)[C@@H](NC(=O)[C@H](CC(C)C)NC(=O)CNC(=O)[C@H](CO)NC(=O)[C@H](CC(=O)O)NC(C)=O)CSSC[C@@H](C(=O)N[C@@H](CC(=O)O)C(=O)N2CCC[C@H]2C(=O)N[C@@H](CCCNC(=N)N)C(N)=O)NC(=O)[C@H](C)NC(=O)[C@H](CCCNC(=N)N)NC(=O)[C@H](CC(C)C)NC(=O)[C@H](CCCNC(=N)N)NC(=O)[C@@H]2CCCN2C1=O (Ac-DSGLCMPRLRACDPR-NH2; disulfide 5-12) | 20% |
| CSCC[C@@H]1NC(=O)[C@@H](NC(C)=O)CSSC[C@@H](C(N)=O)NC(=O)CNC(=O)[C@H](CCCNC(=N)N)NC(=O)[C@@H]2CCCN2C1=O (Ac-CMPRGC-NH2; disulfide 1-6) | 39% |

* * *

- Assayed system: Low-density lipoprotein receptor (Homo sapiens)
- Experiment: Displacement of S-tagged Ac-DSGL[CMPRLRGC]cDPR-NH2 from human DsRed2-fused LDLR expressed in CHO cells at 10 uM after 1 hr by FRET assay
- Assay type: cell-based
Where a SMILES comes first, the peptide text is derived from it. Bridges are numbered along the chain shown (N, C = ends).
Property: inhibition (%)

| Compound | Measured value |
| --- | --- |
| CSCC[C@@H]1NC(=O)[C@@H](NC(=O)[C@H](CC(C)C)NC(=O)CNC(=O)[C@H](CO)NC(=O)[C@H](CC(=O)O)NC(C)=O)CSSC[C@@H](C(=O)N[C@@H](C)C(=O)N2CCC[C@H]2C(=O)N[C@@H](CCCNC(=N)N)C(N)=O)NC(=O)CNC(=O)[C@H](CCCNC(=N)N)NC(=O)[C@H](CC(C)C)NC(=O)[C@H](CCCNC(=N)N)NC(=O)[C@@H]2CCCN2C1=O (Ac-DSGLCMPRLRGCAPR-NH2; disulfide 5-12) | 70 |
| CSCC[C@@H]1NC(=O)[C@@H](NC(=O)[C@H](CC(C)C)NC(=O)CNC(=O)[C@H](CO)NC(=O)[C@H](CC(=O)O)NC(C)=O)CSSC[C@@H](C(=O)N[C@@H](CC(=O)O)C(=O)N2CCC[C@H]2C(=O)N[C@@H](CCCNC(=N)N)C(N)=O)NC(=O)CNC(=O)[C@H](CCCNC(=N)N)NC(=O)[C@H](CC(C)C)NC(=O)[C@H](C)NC(=O)[C@@H]2CCCN2C1=O (Ac-DSGLCMPALRGCDPR-NH2; disulfide 5-12) | 0 |
| CSCC[C@@H]1NC(=O)[C@@H](NC(=O)[C@H](CC(C)C)NC(=O)CNC(=O)[C@H](CO)NC(=O)[C@H](CC(=O)O)NC(C)=O)CSSC[C@@H](C(=O)N[C@@H](CC(=O)O)C(=O)N2CCC[C@H]2C(=O)N[C@@H](CCCNC(=N)N)C(N)=O)NC(=O)CNC(=O)[C@H](CCCNC(=N)N)NC(=O)[C@H](CC(C)C)NC(=O)[C@H](CCCNC(=N)N)NC(=O)[C@@H]2CCCN2C1=O | 55 |
